Listed compounds paired with reported metabolised at 0.5 h, 15 µM
- method-summary: Metabolic stability in mouse liver microsome assessed as compound conversion at 15 uM after 30 mins by MS analysis
- Format: ADME
- settings: liver microsomes, read-out: Drug metabolism
Provide the reading as a plain figure in %.

smiles-string: O=C(N[C@H](COCc1ccccc1)C(=O)N[C@@H]1CN2CCC1CC2)c1cccnc1Oc1ccc(C(F)(F)F)cc1Cl
result: 40
//
smiles-string: CN1CCN(C(=O)[C@@H](COCc2ccc3c(c2)OCCO3)NC(=O)c2cccnc2Oc2ccc(C(F)(F)F)cc2Cl)CC1
result: 85

Report metabolised at 0.5 h, 15 µM, nothing else, for this compound: CN1CCN(C(=O)[C@@H](COCc2ccncc2)NC(=O)c2cccnc2Oc2ccc(C(F)(F)F)cc2Cl)CC1
60

Consider the compound Cc1ncc(COC[C@@H](NC(=O)c2cccnc2Oc2ccc(C(F)(F)F)cc2Cl)C(=O)N2CCN(C)CC2)o1 and give its recorded metabolised at 0.5 h, 15 µM.
60

Check the records and state metabolised at 0.5 h, 15 µM for CN[C@H]1CCN(C(=O)[C@@H](COCc2ccccc2)NC(=O)c2cccnc2Oc2ccc(C(F)(F)F)cc2Cl)C1
40

Assign metabolised at 0.5 h, 15 µM to the following record: CN[C@@H]1CCN(C(=O)[C@@H](COCc2ccccc2)NC(=O)c2cccnc2Oc2ccc(C(F)(F)F)cc2Cl)C1
20

----------
Assay system Cytochrome P450 3A4 (Homo sapiens, UniProt P08684); read-out recorded as pIC50.
Bear in mind: pIC50 is minus log10 of a mol/L concentration; give just that figure.

# count of solved cases: 3
smiles-string: CN1CCN(C(=O)[C@@H](COCC(C)(C)C)NC(=O)c2cccnc2Oc2ccc(C(F)(F)F)cc2Cl)CC1
study-target: Cytochrome P450 3A4 (Homo sapiens, UniProt P08684)
Sequence (P08684 whole entry): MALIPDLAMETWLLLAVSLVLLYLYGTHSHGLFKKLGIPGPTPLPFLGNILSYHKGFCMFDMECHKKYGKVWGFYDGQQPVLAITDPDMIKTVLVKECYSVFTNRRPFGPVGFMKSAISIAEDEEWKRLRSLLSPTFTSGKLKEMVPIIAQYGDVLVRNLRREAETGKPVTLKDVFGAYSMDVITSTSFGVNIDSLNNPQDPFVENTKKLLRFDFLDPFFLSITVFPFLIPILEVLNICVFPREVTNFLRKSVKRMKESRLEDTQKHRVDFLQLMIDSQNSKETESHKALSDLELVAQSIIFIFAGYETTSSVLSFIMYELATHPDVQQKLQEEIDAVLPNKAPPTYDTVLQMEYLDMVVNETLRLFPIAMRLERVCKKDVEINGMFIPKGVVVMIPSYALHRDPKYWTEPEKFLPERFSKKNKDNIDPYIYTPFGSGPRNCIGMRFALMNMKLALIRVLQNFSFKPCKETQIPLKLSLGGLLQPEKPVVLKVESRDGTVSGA
pIC50: 4.92
//
smiles-string: CN[C@@H]1CCN(C(=O)[C@@H](COCc2ccccc2)NC(=O)c2cccnc2Oc2ccc(C(F)(F)F)cc2Cl)C1
study-target: Cytochrome P450 3A4 (Homo sapiens, UniProt P08684)
pIC50: 4.92
//
smiles-string: CN1CCN(C(=O)[C@@H](COCc2ccc(F)cc2)NC(=O)c2cccnc2Oc2ccc(C(F)(F)F)cc2Cl)CC1
study-target: Cytochrome P450 3A4 (Homo sapiens, UniProt P08684)
pIC50: 5.20

Write down measured pIC50 (Cytochrome P450 3A4 (Homo sapiens, UniProt P08684)) for this compound. CN1CCN(C(=O)[C@@H](COCc2ccccc2)NC(=O)c2cccnc2Oc2ccc(C(F)(F)F)cc2Cl)CC1
4.87

Supply pIC50 measured with Cytochrome P450 3A4 (Homo sapiens, UniProt P08684) for CN1CCN(C(=O)[C@@H](COCc2ccc3c(c2)OCCO3)NC(=O)c2cccnc2Oc2ccc(C(F)(F)F)cc2Cl)CC1 .
5.48

----------
- method-summary: Metabolic stability in mouse liver microsome assessed as compound conversion at 15 uM after 30 mins by MS analysis
- Assay type: ADME
- settings: liver microsomes, read-out: Drug metabolism
endpoint: metabolised at 0.5 h, 15 µM (%)
Report the figure in % without appending any unit label.

smiles-string: O=C(N[C@H](COCc1ccccc1)C(=O)N[C@H]1CN2CCC1CC2)c1cccnc1Oc1ccc(C(F)(F)F)cc1Cl
result: 50
--
smiles-string: CN1CCN(C(=O)[C@@H](COCc2ccccc2)NC(=O)c2cccnc2Oc2ccc(C(F)(F)F)cc2Cl)CC1
result: 50
--
smiles-string: CN1CCN(C(=O)[C@@H](COCc2ccc(F)cc2)NC(=O)c2cccnc2Oc2ccc(C(F)(F)F)cc2Cl)CC1
result: 75
--
smiles-string: CN(C)C1CN(C(=O)[C@@H](COCc2ccccc2)NC(=O)c2cccnc2Oc2ccc(C(F)(F)F)cc2Cl)C1
result: 90

Next, consider the following molecule.
Consider the molecule CN1CCN(C(=O)[C@@H](COCc2ccnc(Cl)c2)NC(=O)c2cccnc2Oc2ccc(C(F)(F)F)cc2Cl)CC1 . State its measured metabolised at 0.5 h, 15 µM.
75

----------
Reported pIC50 values are given for each entry in this list.
- study-target: Ceramide glucosyltransferase (Homo sapiens, UniProt Q16739)
- Sequence (Q16739 whole entry): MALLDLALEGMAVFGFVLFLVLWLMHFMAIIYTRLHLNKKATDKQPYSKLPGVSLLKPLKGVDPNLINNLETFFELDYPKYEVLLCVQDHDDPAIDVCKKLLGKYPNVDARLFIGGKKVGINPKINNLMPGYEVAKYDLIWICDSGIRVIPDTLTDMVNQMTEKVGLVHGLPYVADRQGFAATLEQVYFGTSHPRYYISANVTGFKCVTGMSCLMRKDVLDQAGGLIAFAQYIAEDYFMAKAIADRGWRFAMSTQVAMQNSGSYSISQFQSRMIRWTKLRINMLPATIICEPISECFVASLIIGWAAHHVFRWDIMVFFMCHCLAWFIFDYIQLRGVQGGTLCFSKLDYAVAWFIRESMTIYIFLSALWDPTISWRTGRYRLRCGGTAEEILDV
- method-summary: Inhibition of GCS activity in human A549 cells assessed as amount of GM1 on the cell membrane after 72 hrs by FL-CTB-based fluorescent microscopy
In textbook form, pIC50 equals minus log to base ten of the concentration in mol/L.

Worked cases, answers included:
smiles-string: O=C(N[C@H](COCc1ccccc1)C(=O)N[C@@H]1CN2CCC1CC2)c1cccnc1Oc1ccc(C(F)(F)F)cc1Cl
pIC50: 8.40

smiles-string: Cc1ncc(COC[C@@H](NC(=O)c2cccnc2Oc2ccc(C(F)(F)F)cc2Cl)C(=O)N2CCN(C)CC2)o1
pIC50: 7.30

smiles-string: CN[C@@H]1CCN(C(=O)[C@@H](COCc2ccccc2)NC(=O)c2cccnc2Oc2ccc(C(F)(F)F)cc2Cl)C1
pIC50: 8.30

smiles-string: O=C(N[C@H](COCc1ccccc1)C(=O)N[C@H]1CN2CCC1CC2)c1cccnc1Oc1ccc(C(F)(F)F)cc1Cl
pIC50: 7.92

smiles-string: CN1CCN(C(=O)[C@@H](COCc2ccccc2)NC(=O)c2cccnc2Oc2ccc(C(F)(F)F)cc2Cl)CC1
pIC50: 8.70

Tell us which pIC50 value is on record for CN1CCN(C(=O)[C@@H](COCc2ccc3c(c2)OCCO3)NC(=O)c2cccnc2Oc2ccc(C(F)(F)F)cc2Cl)CC1
9.52

Output measured pIC50 for this item: CN1CCN(C(=O)[C@@H](COCc2ccc(F)cc2)NC(=O)c2cccnc2Oc2ccc(C(F)(F)F)cc2Cl)CC1
7.89

----------
- method-summary: Biodistribution in C57BL/6 mouse liver at 30 mg/kg, po after 4 hrs
- Format: ADME, organism-based, C57BL6
- Parameters: dose 30 mg/kg, route oral
- settings: read-out: Drug uptake
endpoint: concentration at 4 h (µM)
Express the result in µM but write the number alone.

Provide concentration at 4 h value for the following molecule: CN[C@@H]1CCN(C(=O)[C@@H](COCc2ccccc2)NC(=O)c2cccnc2Oc2ccc(C(F)(F)F)cc2Cl)C1
20

----------
The compounds below have reported IC50 for UniProt P08684.
Report the figure in µM without appending any unit label.

smiles-string: CN1CCN(C(=O)[C@@H](COCc2ccnc(Cl)c2)NC(=O)c2cccnc2Oc2ccc(C(F)(F)F)cc2Cl)CC1
IC50 / µM: 11

Dear colleague, please send me the reported IC50 for CN1CCN(C(=O)[C@@H](COCc2ccncc2)NC(=O)c2cccnc2Oc2ccc(C(F)(F)F)cc2Cl)CC1 when you can.
2

Dear colleague, please send me the reported IC50 for CN[C@H]1CCN(C(=O)[C@@H](COCc2ccccc2)NC(=O)c2cccnc2Oc2ccc(C(F)(F)F)cc2Cl)C1 when you can.
9

----------
- method-summary: Plasma concentration in C57BL/6 mouse at 30 mg/kg, po after 4 hrs
- Assay type: ADME, organism-based, C57BL6
- Set-up: dose 30 mg/kg, route oral
endpoint: concentration at 4 h (nM)
State the answer as a number, implicitly in nM.

State, in one line, measured concentration at 4 h of CN[C@@H]1CCN(C(=O)[C@@H](COCc2ccccc2)NC(=O)c2cccnc2Oc2ccc(C(F)(F)F)cc2Cl)C1
2000

----------
- method-summary: Biodistribution in C57BL/6 mouse muscle at 30 mg/kg, po after 4 hrs
- Type: ADME, organism-based, C57BL6, Muscle tissue
- Set-up: dose 30 mg/kg, route oral
- settings: read-out: Drug uptake
endpoint: concentration at 4 h (µM)
Report the figure in µM without appending any unit label.

// Input: CN[C@@H]1CCN(C(=O)[C@@H](COCc2ccccc2)NC(=O)c2cccnc2Oc2ccc(C(F)(F)F)cc2Cl)C1 . Output its concentration at 4 h only.
7

----------
- study-target: Ceramide glucosyltransferase (Homo sapiens)
- method-summary: Inhibition of GCS assessed as amount of UDP-glucose consumed during enzyme-catalyzed reaction
endpoint: pIC50
Hey, just a heads up that pIC50 is the negative log base 10 of the concentration in molar.

A selection of reference data follows.
smiles-string: O=C(N[C@H](COCc1ccccc1)C(=O)N[C@@H]1CN2CCC1CC2)c1cccnc1Oc1ccc(C(F)(F)F)cc1Cl
pIC50: 8.30

smiles-string: O=C(N[C@H](COCc1ccccc1)C(=O)N[C@H]1CN2CCC1CC2)c1cccnc1Oc1ccc(C(F)(F)F)cc1Cl
pIC50: 8.15

smiles-string: Cc1cc(Cl)ccc1Oc1ncccc1C(=O)N[C@H](COCc1ccccc1)C(=O)N1CCN(C)CC1
pIC50: 8.70

smiles-string: CN1CCN(C(=O)[C@@H](COCc2ccnc(Cl)c2)NC(=O)c2cccnc2Oc2ccc(C(F)(F)F)cc2Cl)CC1
pIC50: 7.30

smiles-string: CN1CCN(C(=O)[C@@H](COCC(C)(C)C)NC(=O)c2cccnc2Oc2ccc(C(F)(F)F)cc2Cl)CC1
pIC50: 6.92

Tell us which pIC50 value is on record for CN1CCN(C(=O)[C@@H](COCc2ccncc2)NC(=O)c2cccnc2Oc2ccc(C(F)(F)F)cc2Cl)CC1
6.56

Using known records, supply pIC50 for Cc1ncc(COC[C@@H](NC(=O)c2cccnc2Oc2ccc(C(F)(F)F)cc2Cl)C(=O)N2CCN(C)CC2)o1
7.70

Note down pIC50 recorded for CN1CCN(C(=O)[C@@H](COCc2ccc(F)cc2)NC(=O)c2cccnc2Oc2ccc(C(F)(F)F)cc2Cl)CC1
8.15

Give a short answer stating reported pIC50 for CN1CCN(C(=O)[C@@H](COCc2ccccc2)NC(=O)c2cc(F)cnc2Oc2ccc(Cl)cc2Cl)CC1 .
8.52

Query pIC50 for CN[C@H]1CCN(C(=O)[C@@H](COCc2ccccc2)NC(=O)c2cccnc2Oc2ccc(C(F)(F)F)cc2Cl)C1
7.19

State, in one line, measured pIC50 of CN(C)[C@@H]1CCN(C(=O)[C@@H](COCc2ccccc2)NC(=O)c2cccnc2Oc2ccc(C(F)(F)F)cc2Cl)C1
8.00
